Kindly supply the reported normalized growth values for the records listed here.
test: chemical genetic growth profiling, strain panel (AID 1159580);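 further: tested at 20 µM; growth read once vehicle control cultures reached saturation at 30 °C; 1 = growth at the plate median or of vehicle wells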; details: S. cerevisiae deletion strains, growth OD, strain wtn01, hits give low values
Out of some 5,500 compounds screened, about 2,000 (36%) were called active. About 18% were inconclusive and are not listed. Some of the results follow.

C[C@](N)(Cc1ccc(O)c(O)c1)C(=O)O    1.01 (inactive)
CC(Cc1ccc(O)c(O)c1)(NN)C(=O)O (centres undefined)    1.01 (inactive)
CC[C@@]1(C2O[C@@H](C3O[C@@](O)(CC)[C@H](C)C[C@@H]3C)C[C@@H]2C)CC[C@H]([C@]2(C)CCC3(C[C@H](O)[C@@H](C)[C@@H]([C@H](C)[C@@H](OC)[C@H](C)C(=O)O)O3)O2)O1 (some centres undefined)    0.99 (inactive)

# input for lookup
stdin: Please report normalized growth for the following molecule: CCC(CCC(C)C1CCC2C3CC=C4C[C@@H](OC(C)=O)CC[C@]4(C)C3CC[C@]12C)C(C)C (some centres undefined)
stdout: 1.01 (inactive)

----------
Kindly supply the reported normalized growth values for the records listed here.
assay: chemical genetic growth profiling, strain panel (AID 1159580); conditions: S. cerevisiae deletion strains, growth OD, locus YKL048C, strain ELM1, hits give low values
About 2,000 (36%) of roughly 5,500 compounds were called active. Another 18% or so got no clear call; they are omitted. This is one part of the list.
Give bare numbers.

C/C(=N/OC(=O)Nc1ccc(Cl)cc1)c1ccc2c(c1)CCO2    0.966
COc1cc(C(=O)Oc2c(Cl)cc(Cl)cc2C=Nc2ccc([N+](=O)[O-])cc2C#N)cc(OC)c1OC    0.765
O=C(CCSc1cccs1)Nc1cccc(C(F)(F)F)c1    0.92
CN(C)/C=C/C(=O)c1ccc(C#Cc2ccccc2)cc1    0.979

Batch: normalized growth for all items listed.
1. O=C(Nc1ccccn1)c1cc(-c2ccccc2)c(C(F)(F)F)s1
2. CC(C)(O)C#Cc1ccc(/C=N\Nc2c(Cl)cc(Cl)cc2Cl)cc1
3. Clc1ccc(-c2noc(CSC3=NCCN3)n2)cc1
4. O=C(Nc1ccc(Cl)cc1Cl)c1cnccc1C(F)(F)F
5. OC(c1ccc(C(F)(F)F)cc1)c1cccc(C(F)(F)F)c1 (configuration not stated)
6. N#CC1=C(N)C(C#N)(C#N)C2(CCCCC2)C2CCCC=C12 (configuration not stated)
7. CSc1c(C#N)c(-c2ccc(Cl)cc2)nn1C(=O)c1ccccc1Cl

stdout:
1: 0.948; 2: 0.93; 3: 0.96; 4: 0.974; 5: 0.977; 6: 0.985; 7: 0.981

Batch: normalized growth for all items listed.
1. CCC1CCC(C)N(C(=S)Nc2ccc(Br)cc2C)C1 (configuration not stated)
2. O=C(NCc1ccco1)c1csc(C2COc3ccccc3O2)n1 (configuration not stated)
3. COc1cc(C(=O)Oc2c(Cl)cc(Cl)cc2C=Nc2cccc([N+](=O)[O-])c2)cc(OC)c1OC
4. COc1ccccc1C(C[N+](=O)[O-])c1c(N)n(C)c(=O)n(C)c1=O (configuration not stated)
5. CC12CC[C@@H](O)CC1=CC[C@@H]1C2CCC2(C)C(=O)CC[C@@H]12 (some centres not stated)
6. N/C(=N/OC(=O)c1ccc(Cl)cc1)c1ccc(F)cc1F

stdout:
1. 0.956
2. 0.906
3. 0.776
4. 0.654
5. 0.957
6. 0.821

----------
assay: chemical genetic growth profiling, strain panel (AID 1159580); details: S. cerevisiae deletion strains, growth OD, locus YPL256C, strain CLN2, hits give low values
Hit rate of the full screen: of about 5,500 compounds, about 2,000 (36%) were called active. Another 18% or so got no clear call; they are omitted. The list shows a part of the results.
Values of normalized growth strictly less than 1 map to T, and values of at least 1 map to F.

A selection of reference data follows.
CCOP(=S)(OCC)Oc1ccc2c(C)c(Cl)c(=O)oc2c1    F
O=C(O)CNCP(=O)(O)O    T
COc1ccc(C[C@H](N)C(=O)N[C@@H]2[C@@H](CO)OC(n3cnc4c(N(C)C)ncnc43)[C@@H]2O)cc1 (stereo partly specified)    T
CCC1CCC(C)N(C(=S)Nc2ccc(Br)cc2C)C1 (stereo unspecified)    T
O=C(NC(=O)c1c(F)cccc1F)Nc1cc(Cl)c(OC(F)(F)C(F)C(F)(F)F)cc1Cl (stereo unspecified)    F

Then there is this compound:
stdin: hey, is normalized growth for O=C(O)P(=O)(O)O lower than 1 or not?
stdout: F

----------
assay: chemical genetic growth profiling, strain panel (AID 1159580);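 further: tested at 20 µM; growth read once vehicle control cultures reached saturation at 30 °C; 1 = growth at the plate median or of vehicle wells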; details: S. cerevisiae deletion strains, growth OD, locus YPR163C, strain tif3, hits give low values
Out of some 5,500 compounds screened, about 2,000 (36%) were called active. About 18% were inconclusive and are not listed. Some of the results follow.
Values of normalized growth strictly less than 1 map to label 1, and values of at least 1 map to label 0.

Oc1ccc(/C=C/c2cc(O)cc(O)c2)cc1    label 1

stdin: hey, is normalized growth for CC(=O)O[C@H]1CC[C@@]2(C)C(=CCC3C2CC[C@]2(C)C(=O)CCC32)C1 (stereo not given in full) lower than 1 or not?
stdout: label 1

stdin: hey, is normalized growth for CC1(C)CC2C1CCC1(C)OC1CCC2(C)O (stereo not given) lower than 1 or not?
stdout: label 0

stdin: hey, is normalized growth for CCn1cc(C(=O)O)c(=O)c2ccc(C)nc21 lower than 1 or not?
stdout: label 1

stdin: hey, is normalized growth for CC[C@@H]1[C@@H](O)N2C3C[C@H]1C1C(O)[C@]4(C[C@@H]12)c1ccccc1N(C)[C@@H]34 (stereo not given in full) lower than 1 or not?
stdout: label 1

stdin: hey, is normalized growth for CC[C@@H](C(=O)O)[C@@H]1O[C@@H]([C@@H](C)[C@H](O)[C@H](C)C(=O)[C@H](CC)[C@H]2O[C@]3(C=C[C@@H](O)[C@]4(CC[C@@](C)(C5CC[C@](O)(CC)[C@H](C)O5)O4)O3)[C@H](C)C[C@@H]2C)[C@@H](C)C[C@H]1C (stereo not given in full) lower than 1 or not?
stdout: label 1

stdin: hey, is normalized growth for O=C(O)CCC(=O)c1ccc(-c2ccccc2)cc1 lower than 1 or not?
stdout: label 1

stdin: hey, is normalized growth for COc1c(C2COc3cc4c(cc3C2=O)CC(O)C(C)(C)O4)ccc2c1CCC(C)(C)O2 (stereo not given) lower than 1 or not?
stdout: label 0

stdin: hey, is normalized growth for CC1=C(/C=C/C(C)=C/C=C/C(C)=C/C(=O)O)C(C)(C)CCC1 lower than 1 or not?
stdout: label 0

----------
assay: chemical genetic growth profiling, strain panel (AID 1159580);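 further: tested at 20 µM; growth read once vehicle control cultures reached saturation at 30 °C; 1 = growth at the plate median or of vehicle wells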; details: S. cerevisiae deletion strains, growth OD, locus YOR083W, strain WHI5 (second series), hits give low values
In all, about 5,500 compounds went through this assay and about 2,000 (36%) were called active. Another 18% or so got no clear call; they are omitted. The list shows a part of the results.
Kindly supply the reported normalized growth values for the records listed here.
Answers are plain numbers.

Batch: normalized growth for all items listed.
1. CN[C@H](CC(C)C)C(=O)N[C@H]1C(=O)N[C@@H](CC(N)=O)C(=O)N[C@H]2C(=O)N[C@H]3C(=O)N[C@H](C(=O)N[C@H](C(=O)O)c4cc(O)cc(O)c4-c4cc3ccc4O)[C@H](O)c3ccc(c(Cl)c3)Oc3cc2cc(c3O[C@@H]2O[C@H](CO)[C@@H](O)[C@H](O)[C@H]2O[C@H]2C[C@](C)(N)[C@H](O)[C@H](C)O2)Oc2ccc(cc2Cl)[C@H]1O
2. NC(N)=NOCCC(N)C(=O)O (stereo not drawn)

stdout:
1. 0.985
2. 0.975

stdin: Please report normalized growth for the following molecule: O=C(O)CP(=O)(O)O
stdout: 1.01

----------
assay: chemical genetic growth profiling, strain panel (AID 1159580);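 further: tested at 20 µM; growth read once vehicle control cultures reached saturation at 30 °C; 1 = growth at the plate median or of vehicle wells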; conditions: S. cerevisiae deletion strains, growth OD, locus YLR418C, strain cdc73
About 2,000 (36%) of roughly 5,500 compounds were called active. About 18% were inconclusive and are not listed. No stated cut-off is given here; in the data, active means normalized growth mostly below about 0.91 (no sharp cut-off); inconclusive means no clear call, values can overlap the other calls; inactive means mostly above about 0.92. This is one part of the list.
Choose one outcome from this list and give only that: active, inactive

CC(=O)N[C@@H]1[C@@H](C(O)[C@H](O)CO)O[C@](O)(C(=O)O)C[C@@H]1O (stereo partly specified)    inactive
O=C(/C=C/c1ccc(O)c(O)c1)O[C@@H]1C[C@](O)(C(=O)O)C[C@@H](O)[C@H]1O    inactive
COc1ccccc1N1CCNCC1    inactive
O=C(O)CCCCC1SCC2NC(=O)NC21 (stereo unspecified)    inactive
NC(=O)c1cc[n+](CC2=C(C(=O)O)N3C(=O)C(NC(=O)C(c4ccccc4)S(=O)(=O)[O-])C3SC2)cc1 (stereo unspecified)    inactive

Then there is this compound:
stdin: Per the records of this test, what outcome belongs to c1ccc2[nH]c(-c3cscn3)nc2c1 ?
stdout: inactive
